Kindly supply the reported abundance fitness values for the records listed here.
B1: Storkhead-box protein 2, residues 64 to 141; numbered along this chain, Q9P2F5 (parent)
chain: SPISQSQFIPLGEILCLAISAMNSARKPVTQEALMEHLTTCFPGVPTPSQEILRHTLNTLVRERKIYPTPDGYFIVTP

- Variants of: B1
- TEST: abundance fitness (aPCA) (normalised: wild type 0, dead -1); higher = more abundant; growth selection in yeast, the domain comes from the species named
- EXPERIMENTAL SETUP: Homo sapiens
Answers are plain numbers.

Sample answers from the record:
* P43S | -0.023
* E32N | -0.126
* V76W | -0.028
* S49M | -0.68
* T59A | 0.017

Okay, here is my list. What is abundance fitness for each of these?
1. P78M
2. Q7L
3. L11E
4. H55I
5. I66Q
6. A25Q

Solution:
-0.289
-0.085
-0.325
-0.103
-1.01
-0.021

Data origin: the Human Domainome abundance scans (Beltran et al. 2025)
